Provenance of the data: PubChem BioAssay AID1159580

Listed below: normalized growth values for each entry.
protocol-text: chemical genetic growth profiling, strain panel (AID 1159580);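 further: tested at 20 µM; growth read once vehicle control cultures reached saturation at 30 °C; 1 = growth at the plate median or of vehicle wells; lower values mean less growth of the strain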
measurement-parameters: S. cerevisiae deletion strains, growth OD, locus YLR370C, strain arc18, hits give low values
The whole screen tested about 5,500 compounds, of which about 2,000 (36%) were called active. Inconclusive results (about 18%) are left out. The list shows a part of the results.
assay-metric: normalized growth

> print(dat)
                                   compound  obs.value
1  CC(CC(O)C1OC1(C)C)[C@@H]1CCC2(C)C3=CCC4C(C)(C)C(=O)CCC4(C)C3CC[C@@]12C (stereo partly drawn)       1.01
2  COc1cc(OC)c2c(=O)c(O)c(-c3ccc(OC)c(OC)c3)oc2c1      0.967
3  C[C@@H]1CC[C@@]2(NC1)O[C@H]1C[C@H]3C4CC=C5C[C@@H](O)CC[C@]5(C)C4CC[C@]3(C)C1[C@@H]2C (stereo partly drawn)      0.066

----------
protocol-text: chemical genetic growth profiling, strain panel (AID 1159580);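 further: tested at 20 µM; growth read once vehicle control cultures reached saturation at 30 °C; 1 = growth at the plate median or of vehicle wells; lower values mean less growth of the strain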
measurement-parameters: S. cerevisiae deletion strains, growth OD, locus YIL147C, strain SLN1, hits give low values
About 2,000 (36%) of roughly 5,500 compounds were called active. Another 18% or so got no clear call; they are omitted. Some of the results follow.
assay-metric: normalized growth

> print(dat)
                                    molecule  obs.value
 1  O=C1Nc2ccccc2/C1=C\c1cccc([N+](=O)[O-])c1      0.967
 2  FC(F)(F)c1ccc(N2CCc3ccccc3C2)c(NC(=S)Nc2cc(Cl)cc(Cl)c2)c1      0.993
 3         CCCCNC(=S)N/N=C\c1cc(Cl)cc(Cl)c1O      0.923
 4  COc1cc(Br)cc(C=Nc2ccc(Sc3ccccc3)nc2Sc2ccccc2)c1O      0.964
 5             CC(C)(C)NC(=S)N/N=C\c1ccccc1O      0.953
 6             Oc1c(Br)cc(Br)cc1/C=N\n1cnnc1      0.907
 7              O=C(NNc1ccc(F)cc1F)c1sccc1Cl      0.968
 8            O=C1/C(=C/c2ccccn2)CCc2ccccc21      0.939
 9  Cc1nnc2n1N=C(c1ccc(CC(C)C)cc1)C(C)S2 (stereo not given)      0.964
10  O=[N+]([O-])c1cc(Cl)cc([N+](=O)[O-])c1Nc1ccccc1      0.933
11         O=C1Nc2ccccc2/C1=C\c1c(Cl)cccc1Cl      0.971
12        COCCCNC(=S)N/N=C\c1cc(Cl)cc(Cl)c1O      0.957
13  Cc1c(C)c(C)c(C(O)c2ccccc2)c(C)c1C (stereo not given)       1.01
14  Oc1c(Cl)cc(Cl)cc1/C=N\NC(=S)Nc1cc(C(F)(F)F)cc(C(F)(F)F)c1      0.887
15      FC(F)(F)c1cccc(NC(=S)NN=C2CCCCCC2)c1      0.987
16  Cc1ccc(C)n1-c1ccc(/C=C2/C(=O)Nc3ccccc32)cc1       0.97
17   O=C1Nc2ccccc2/C1=C/c1ccc(C(F)(F)F)cc1Cl      0.973
18             Cc1cc(Cl)ccc1NNC(=O)c1sccc1Br      0.928
19         COc1ccc(/C=C2/C(=O)Nc3ccccc32)cc1      0.892
20         O/N=C(/c1ccc(Cl)cc1)c1cc2ccccc2o1      0.943
21           O=C1Nc2ccccc2/C1=C\c1ccc(Cl)cc1      0.944
22  CC(C)(C)C(=O)NC(=S)N/N=C\c1cc(Cl)cc(Cl)c1O      0.933
23           COc1ccccc1NC(=S)N/N=C\c1ccccc1O      0.961
24  Oc1c(Br)cc(Br)cc1C=Nc1ccc(Sc2ccccc2)nc1Sc1ccccc1      0.931
25  O=C1C(Cl)=C(Oc2cc(Cl)c(Cl)cc2Cl)C(=O)c2ccccc21      0.938
